test system: HCT-116; assay: Antiproliferative activity against p53 deficient human HCT116 cells after 72 hrs by MTT assay; type: functional, cell-based; details: HCT-116, 72 h
pIC50: −log10 of the molar value.
outcomeMeasure: pIC50

Example entries begin here.
>  <compoundStructureString>
Cc1cc(O)c2c3c4c(cc(O)c13)C(C)(C)C(=O)c1c(O)c(CN(C)C)c(O)c(c1-4)C2=O

>  <pIC50>
6.22

$$$$
>  <compoundStructureString>
Cc1cc(O)c2c3c4c(cc(O)c13)C(C)(C)C(=O)c1c(O)c(CN3CCN(C)CC3)c(O)c(c1-4)C2=O

>  <pIC50>
6.30

$$$$
>  <compoundStructureString>
Cc1cc(O)c2c3c4c(cc(O)c13)C(C)(C)C(=O)c1c(O)c(CN(CC(=O)O)CC(=O)O)c(O)c(c1-4)C2=O

>  <pIC50>
6.22

$$$$

(A) Cc1cc(O)c2c3c4c(cc(O)c13)C(C)(C)C(=O)c1c(O)c(CN3CCCC3)c(O)c(c1-4)C2=O
(B) Cc1cc(O)c2c3c4c(cc(O)c13)C(C)(C)C(=O)c1c(O)c(CN3CCNCC3)c(O)c(c1-4)C2=O
(C) Cc1cc(O)c2c3c4c(cc(O)c13)C(C)(C)C(=O)c1c(O)c(CNCCO)c(O)c(c1-4)C2=O
(D) Cc1cc(O)c2c3c4c(cc(O)c13)C(C)(C)C(=O)c1c(O)c(CNC(C)(C)C)c(O)c(c1-4)C2=O
(E) CCN(CC)Cc1c(O)c2c3c(c1O)C(=O)C(C)(C)c1cc(O)c4c(C)cc(O)c(c4c1-3)C2=O
[ask] Order the records, beginning with the lowest pIC50 and ending with the highest. Please list each label once, in the requested order.
[reply] B, C, E, D, A

(1) CCN1CCN(Cc2c(O)c3c4c(c2O)C(=O)C(C)(C)c2cc(O)c5c(C)cc(O)c(c5c2-4)C3=O)CC1
(2) Cc1cc(O)c2c3c4c(cc(O)c13)C(C)(C)C(=O)c1c(O)c(CNCCN(C)C)c(O)c(c1-4)C2=O
[ask] Hey, which is lower on measured pIC50, 1 or 2 ? Identify your selection by its label.
[reply] 1
